TARGET OF ASSAY: Toll-like receptor 4 (Mus musculus)
RUN DESCRIPTION: Activation of TLR4 in C57BL/6 mouse BMDC cells assessed as AUC of IL6 release after 18 hrs by ELISA relative to N-cyclohexyl-2-(4-oxo-3-phenyl-4,5-dihydro-3H-pyrimido[5,4-b]indol-2-ylthio)acetamide
Format: cell-based
Below, each entry is listed alongside its reported Activity.

As a guide, the following entries are already answered.
In [3]: df
Out[3]:
                                 mol_smiles  result
0  CCC(CC)NC(=O)CSc1nc2c([nH]c3ccccc32)c(=O)n1-c1ccccc1   < 10%
1  CC(C)(C)NC(=O)CSc1nc2c([nH]c3ccccc32)c(=O)n1-c1ccccc1    < 1%

The record that follows has no Activity shown yet.
Exercise: # get_value(readout='Activity', item= CCCCCCCCCCCCn1c2ccccc2c2nc(SCC(=O)NC3CCCCC3)n(-c3ccccc3)c(=O)c21 )
Key: < 1%
